Measured abundance fitness values are reported for all entries that follow.
B1: Far upstream element-binding protein 1, residues 98 to 169; numbered along this chain, Q96AE4 (parent)
chain: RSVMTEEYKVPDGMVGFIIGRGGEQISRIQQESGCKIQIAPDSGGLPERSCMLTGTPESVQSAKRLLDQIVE

variants of: B1; test: abundance fitness (aPCA) (normalised: wild type 0, dead -1); higher = more abundant; growth selection in yeast, the domain comes from the species named; details: Homo sapiens
I only need the number, thanks.

Worked cases, answers included:
Query: Give the measured abundance fitness of Q69T .
Reply: -0.029

Query: Give the measured abundance fitness of P47D .
Reply: -0.007

Query: Give the measured abundance fitness of G44D .
Reply: -0.017

Query: Give the measured abundance fitness of D42H .
Reply: -0.04

Query: Give the measured abundance fitness of E7G .
Reply: -0.116

Query: Give the measured abundance fitness of Y8F .
Reply: -0.013

Query: Give the measured abundance fitness of Y8T .
Reply: -0.147

Query: Give the measured abundance fitness of R65K .
Reply: -0.006

Next:
Query: Give the measured abundance fitness of E58W .
Reply: -0.125

Query: Give the measured abundance fitness of V10C .
Reply: -0.078

Query: Give the measured abundance fitness of G55D .
Reply: -0.936

Query: Give the measured abundance fitness of V15L .
Reply: -0.046

Query: Give the measured abundance fitness of A63C .
Reply: 0.024

Query: Give the measured abundance fitness of F17T .
Reply: 0

Query: Give the measured abundance fitness of Q25L .
Reply: -0.108

Query: Give the measured abundance fitness of E7A .
Reply: -0.085

Query: Give the measured abundance fitness of V10F .
Reply: -0.091

Query: Give the measured abundance fitness of K36H .
Reply: -0.046

Query: Give the measured abundance fitness of S59E .
Reply: 0.012

Query: Give the measured abundance fitness of G34Y .
Reply: -0.269

Query: Give the measured abundance fitness of G13R .
Reply: -0.007

Query: Give the measured abundance fitness of Q31C .
Reply: 0.001

Query: Give the measured abundance fitness of K64W .
Reply: -0.252

Query: Give the measured abundance fitness of G45R .
Reply: -0.078

Hello, the source for this data is the Human Domainome abundance scans (Beltran et al. 2025), in case you need it.
